molecular target: Sortase A (SrtA) (Staphylococcus aureus, UniProt Q2FV99); construct: pET28a-SrtA, recombinant, nickel-purified; test: FRET cleavage assay with purified recombinant SrtA; reversible by dilution; binding supported by fluorescence quenching (KA […] L/mol)
Sequence (Q2FV99 whole entry): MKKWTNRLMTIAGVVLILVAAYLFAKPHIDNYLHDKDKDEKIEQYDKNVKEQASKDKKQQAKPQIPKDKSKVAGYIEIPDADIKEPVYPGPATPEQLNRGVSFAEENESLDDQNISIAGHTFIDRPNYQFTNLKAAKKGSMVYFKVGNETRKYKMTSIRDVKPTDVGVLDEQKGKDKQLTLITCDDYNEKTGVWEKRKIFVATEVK
pIC50: −log10 of the molar value.
Endpoint: pIC50

>  <Given Smiles>
O=C1C[C@@H](c2ccc(O)c(O)c2)Oc2cc(O)cc(O)c21

>  <Target>
Sortase A (SrtA) (Staphylococcus aureus, UniProt Q2FV99)

>  <Endpoint>
pIC50

>  <Data Value>
5.11

$$$$
